meta.source: PubChem BioAssay (NCI)

test system: NCI-H226 lung; assay: NCI tumour cell line growth inhibition, 48 h
readoutType: TGI

Below: 5 compounds and their reported TGI.
{"compound": "Cc1[nH]c(/C=C2\\C(=O)Nc3ccc(S(=O)(=O)Cc4c(Cl)cccc4Cl)cc32)c(C)c1C(=O)N1CCC[C@@H]1CN1CCCC1", "studyTarget": "NCI-H226 lung", "TGI": "54.8 µM"}
{"compound": "COC(=O)C1OC(O[C@H]2CCC3(C)C(CCC4(C)C3CC=C3C5CC(C)(C)CCC5(C(=O)O)CC[C@]34C)C2(C)C)C(O)C(OC2OC(CO)C(O)C(O)C2O)C1O (stereo partly specified)", "studyTarget": "NCI-H226 lung", "TGI": "12.2 µM"}
{"compound": "N#Cc1c(-c2cccs2)c2c(=S)[nH]c(=S)[nH]c2[nH]c1=S", "studyTarget": "NCI-H226 lung", "TGI": "> 100 µM"}
{"compound": "O=c1[nH]cnc2c(C3OC(CO)C(O)C3O)c[nH]c12 (stereo unspecified)", "studyTarget": "NCI-H226 lung", "TGI": "> 100 µM"}
{"compound": "C=C1CCC2C(/C=C(\\C)CCC1O)OC(=O)C2C (stereo unspecified)", "studyTarget": "NCI-H226 lung", "TGI": "> 100 µM"}

Exercise: I am curious: what TGI value has been reported for Cc1cc(-c2nc3ccccc3s2)ccc1NS(=O)(=O)O ?
Solution: > 100 µM

Exercise: What do we get for O=C1CCCN(c2ccccc2)N1 ?
Solution: > 100 µM

Exercise: Same for CCN(CC)CCOC(c1cc(OC)ccc1OC)c1ccc2n1-c1ccccc1OC2 (stereo unspecified)
Solution: 14.6 µM

Exercise: Now the compound NC(CO)Cc1cnc[nH]1 (stereo unspecified)
Solution: > 100 µM

Exercise: Now give it for O=c1c2c3ccccc3[nH]c2c2cccc3c2n1CCC3 too.
Solution: > 100 µM

Exercise: Can you check Clc1ccccc1C(c1ccccc1)(c1ccccc1)n1ccnc1 next?
Solution: 17.7 µM

Exercise: Lookup COc1ncc(C=C(C#N)C#N)c(OC)n1
Solution: > 100 µM

Exercise: Okay, and Cn1cc(NC(=O)c2cc(NC(=O)CCCCCCCCCCC(=O)Nc3cc(C(=O)Nc4cc(C(=O)NCCC(=N)N)n(C)c4)n(C)c3)cn2C)cc1C(=O)NCCC(=N)N ?
Solution: > 100 µM

Exercise: Also need Nc1n[nH]c2ccc([C@@H]3Nc4ccc5[nH]ncc5c4[C@H]4[C@H]5CCC(C5)[C@H]43)cc12 , thanks.
Solution: 2.88 µM
